- Tested on: MDA-MB-231 breast
- testSummary: NCI tumour cell line growth inhibition, 48 h

| smilesStr | TGI |
| --- | --- |
| C=C1C(=O)O[C@H]2[C@H]1CC/C(COC(=O)c1cccnc1N)=C\CC[C@@]1(C)O[C@@H]21 | 6.9 µM |
| CC(=O)Nc1cc(Cl)cc(Cl)c1O | > 100 µM |
| O=Cc1cn(CCCCCCCCn2cc(C=O)c3ccccc32)c2ccccc12 | > 10 µM |

* * *

Form field: TGI (one value per entry).
- Tested on: CCRF-CEM leukemia
- testSummary: NCI tumour cell line growth inhibition, 48 h
Where a SMILES comes first, the peptide text is derived from it. [ ]: non-standard residue; d: D form. ΔPro = O=C(O)[CH]1C=CCN1
measuredQuantity: TGI

| compound | reportedValue |
| --- | --- |
| O=S1(=O)c2ccccc2N(c2ccccc2)c2nnnn21 | 31 µM |
| CC(C)c1oc(=O)cc2c1C(O)C1OC(=O)C3(C)C(O)C4OC4C2(C)C13 (configuration not stated) | 3.07 µM |
| Cc1ccccc1NC(=O)/C(=N\NC(N)=S)C(C#N)c1ccccc1 (configuration not stated) | > 100 µM |
| CSC1=NN(C(C)=O)C(C(OC(C)=O)C(OC(C)=O)C(OC(C)=O)C(COC(C)=O)OC(C)=O)S1 (configuration not stated) | > 100 µM |
| O=C(O)C1C=CCN1C(=O)C1C=CCN1C(=O)C1C=CCN1 (configuration not stated) (H-[ΔPro]-[ΔPro]-[ΔPro]-OH; configuration not given here) | > 100 µM |
| COc1cc(OCc2ccccc2)c2c(CCC(=O)O)cc(=O)oc2c1 (tested in a mixture with another compound) | > 100 µM |
| N=c1oc2ccccc2cc1C(=O)Nc1cccc2ccccc12 | > 100 µM |
| Cc1cc(=O)oc2c1cc1ccc3cccc4ccc2c1c34 | > 100 µM |
| O=c1nc2sc3ccccc3c(=O)n2[nH]1 | > 100 µM |
| Cn1c(=O)c2ccccc2[n+]2c(-c3cccc([N+](=O)[O-])c3)csc12 | > 100 µM |
| Cc1cc(O)c2c(c1)C(=O)c1c(c(O)cc(O)c1-c1c(O)cc(O)c3c1C(=O)c1cc(C)cc(O)c1C3=O)C2=O | 48.3 µM |
| CCN(CC)C1Oc2cc3c(cc2C(c2cc(OC)c(O)c(OC)c2)C1C)OCO3 (configuration not stated) | 42.1 µM |
| O=S1SC(=S)C2C=CC=NC21 (configuration not stated) | > 100 µM |
| Cn1nnc2c(C(N)=S)ncn2c1=O | > 100 µM |
| COc1cccc(NC(=O)CSc2nnc(Cc3ccccc3)o2)c1 | > 100 µM |
| CN1CCC2(CC1)N=C(SCC(=O)Nc1cnc3ccccc3c1)C(c1ccc(Br)cc1)=N2 | 5.31 µM |
| CCCCN=NNc1cn(C2OC(CO)C(O)C2O)c(=O)[nH]c1=O (configuration not stated) | > 100 µM |

Data provenance: PubChem BioAssay (NCI)
